melting point overview
Counter-ions that a name gives are not always drawn.

{"columns": ["compound", "melting point"],
 "data": [
  ["COc1ccccc1CNC(=O)CCOc1nc(-c2ncccn2)nc(NS(=O)(=O)c2ccc(C(C)(C)C)cc2)c1Oc1ccccc1OC (as salt: sodium)", "138 to 139 °C"],
  ["CCCCCNC(=O)CCOc1nc(-c2ncccn2)nc(NS(=O)(=O)c2ccc(C(C)(C)C)cc2)c1Oc1ccccc1OC (as salt: sodium)", "142 to 144 °C"],
  ["COc1ccccc1NC(=O)CCOc1nc(-c2ncccn2)nc(NS(=O)(=O)c2ccc(C(C)(C)C)cc2)c1Oc1ccccc1OC (as salt: sodium)", "120 to 122 °C"]
]}

Field request: melting point | item: COc1ccccc1Oc1c(NS(=O)(=O)c2ccc(C(C)(C)C)cc2)nc(-c2ncccn2)nc1OCCC(=O)Nc1ccccc1 (as salt: sodium)
162 to 163 °C

Next compound: CCNC(=O)CCOc1nc(-c2ncccn2)nc(NS(=O)(=O)c2ccc(C(C)(C)C)cc2)c1Oc1ccccc1OC (as salt: sodium)
117 to 120 °C

====

Target: ETA receptor (Sus scrofa)
Construct: Porcine thoracic aorta which was separated from the fatty tissue and then was removed endothelium with gauze was minced, and then homogenized; from tissue; host or cells: porcine thoracic aorta smooth muscle membranes
Test: Endothelin binding inhibition experiment, 125I-endothelin-1 binding assay, ETA receptor membrane samples from smooth muscles of porcine thoracic aorta
Settings: 125I-endothelin-1 2×10^−11 M, porcine thoracic aorta membranes, 2 hours at 25° C.
Listed here: items and their measured IC50.
Please answer using a numeric value trailed by its unit.

Below: 2 compounds and their reported IC50.
{"columns": ["compound", "IC50"],
 "data": [
  ["COc1ccccc1CNC(=O)CCOc1nc(-c2ncccn2)nc(NS(=O)(=O)c2ccc(C(C)(C)C)cc2)c1Oc1ccccc1OC [Compound No. 34]", "0.39 µM"],
  ["COc1ccccc1Oc1c(NS(=O)(=O)c2ccc(C(C)(C)C)cc2)nc(-c2ncccn2)nc1OCCC(=O)Nc1ccccc1 [Compound No. 18]", "0.15 µM"]
]}

Record request: IC50 value, item COc1ccccc1NC(=O)CCCOc1nc(-c2ncccn2)nc(NS(=O)(=O)c2ccc(C(C)(C)C)cc2)c1Oc1ccccc1OC [Compound No. 29]
3.1 µM

Queued: COc1ccccc1Oc1c(NS(=O)(=O)c2ccc(C(C)(C)C)cc2)nc(-c2ncccn2)nc1OCCC(=O)NCc1ccccc1 [Compound No. 14]
0.82 µM

====

Target: ETA receptor (Sus scrofa, UniProt Q29010)
Construct: Porcine thoracic aorta which was separated from the fatty tissue and then was removed endothelium with gauze was minced, and then homogenized; from tissue; host or cells: porcine thoracic aorta smooth muscle membranes
Sequence (Q29010 21-427): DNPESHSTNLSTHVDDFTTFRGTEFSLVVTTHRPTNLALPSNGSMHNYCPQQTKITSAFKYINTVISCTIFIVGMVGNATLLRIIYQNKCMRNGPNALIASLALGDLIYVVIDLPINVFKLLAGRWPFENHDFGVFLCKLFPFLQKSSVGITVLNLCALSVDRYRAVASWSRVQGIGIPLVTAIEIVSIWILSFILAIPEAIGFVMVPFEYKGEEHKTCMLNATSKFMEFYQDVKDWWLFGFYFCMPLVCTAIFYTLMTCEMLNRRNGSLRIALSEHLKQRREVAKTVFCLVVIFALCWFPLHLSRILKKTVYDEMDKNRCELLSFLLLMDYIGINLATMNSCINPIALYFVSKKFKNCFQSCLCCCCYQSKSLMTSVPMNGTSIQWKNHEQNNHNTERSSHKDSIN
Assay: Endothelin binding inhibition experiment, 125I-endothelin-1 binding assay, ETA receptor membrane samples from smooth muscles of porcine thoracic aorta
Conditions: 125I-endothelin-1 2×10^−11 M, porcine thoracic aorta membranes, 2 hours at 25° C.
property: log10 IC50 (log10 of the value in µM)
log10 IC50, µM

Value wanted: log10 IC50 (ETA receptor (Sus scrofa, UniProt Q29010)) of entry COc1ccccc1Oc1c(NS(=O)(=O)c2ccc(C(C)(C)C)cc2)nc(-c2ncccn2)nc1OCC(=O)NCc1ccccc1 [Compound No. 15]
0.51

And then CCOC(=O)CCOc1nc(-c2ncccn2)nc(NS(=O)(=O)c2ccc(C(C)(C)C)cc2)c1Oc1ccccc1OC [Compound No. 9] , what is it?
-0.14

Next compound: COc1ccccc1Oc1c(NS(=O)(=O)c2ccc(C(C)(C)C)cc2)nc(-c2ncccn2)nc1OCC(=O)O [Compound No. 2]
0.97

Another compound to look at: COc1ccccc1Oc1c(NS(=O)(=O)c2ccc(C(C)(C)C)cc2)nc(-c2ncccn2)nc1OCCCC(=O)Nc1ccccc1 [Compound No. 25]
0.28

Follow-up entry: COc1ccccc1NC(=O)CCOc1nc(-c2ncccn2)nc(NS(=O)(=O)c2ccc(C(C)(C)C)cc2)c1Oc1ccccc1OC [Compound No. 48]
-0.80

What about this compound? COc1ccccc1Oc1c(NS(=O)(=O)c2ccc(C(C)(C)C)cc2)nc(-c2ncccn2)nc1OCCC(=O)Nc1ccccn1 [Compound No. 92]
-2.02

====

Target: ETA receptor (Sus scrofa, UniProt Q29010)
Construct: Porcine thoracic aorta which was separated from the fatty tissue and then was removed endothelium with gauze was minced, and then homogenized; from tissue; host or cells: porcine thoracic aorta smooth muscle membranes
Experiment: Endothelin binding inhibition experiment, 125I-endothelin-1 binding assay, ETA receptor membrane samples from smooth muscles of porcine thoracic aorta
Settings: 125I-endothelin-1 2×10^−11 M, porcine thoracic aorta membranes, 2 hours at 25° C.
property: IC50
Provide the measurement as a number trailed by its unit.

{"columns": ["structure", "experimental target", "IC50"],
 "data": [
  ["COc1ccccc1Oc1c(NS(=O)(=O)c2ccc(C(C)(C)C)cc2)nc(-c2ncccn2)nc1OCCC(=O)Nc1ccccc1C(C)C", "ETA receptor (Sus scrofa, UniProt Q29010)", "0.098 µM"]
]}

Find the measured IC50: item COc1ccccc1Oc1c(NS(=O)(=O)c2ccc(C(C)(C)C)cc2)nc(-c2ncccn2)nc1OCC(=O)Oc1cccc(Cl)c1 , target or system ETA receptor (Sus scrofa, UniProt Q29010).
0.32 µM

What do we get for COc1ccccc1Oc1c(NS(=O)(=O)c2ccc(C(C)(C)C)cc2)nc(-c2ncccn2)nc1OCC(=O)OCc1ccccc1 ?
0.51 µM

====

Biological target: ETB receptor (Rattus norvegicus, UniProt P21451)
Construct: Rat brain tissue was minced, and a crude receptor membrane sample was prepared; from tissue; host or cells: rat brain crude membranes
Sequence (P21451 27-442): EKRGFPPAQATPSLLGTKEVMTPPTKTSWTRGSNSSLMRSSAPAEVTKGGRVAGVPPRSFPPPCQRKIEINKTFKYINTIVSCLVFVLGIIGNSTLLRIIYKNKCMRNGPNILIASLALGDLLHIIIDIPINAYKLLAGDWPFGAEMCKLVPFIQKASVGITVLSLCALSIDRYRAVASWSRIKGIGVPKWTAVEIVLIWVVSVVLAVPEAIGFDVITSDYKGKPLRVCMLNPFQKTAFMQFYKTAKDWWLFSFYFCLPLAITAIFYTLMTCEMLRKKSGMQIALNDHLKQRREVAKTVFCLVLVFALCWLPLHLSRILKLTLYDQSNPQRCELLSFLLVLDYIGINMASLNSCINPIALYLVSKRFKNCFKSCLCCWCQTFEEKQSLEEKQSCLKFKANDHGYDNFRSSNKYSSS
Assay: Endothelin binding inhibition experiment, 125I-endothelin-1 binding assay, ETB receptor membrane sample from rat brain
Conditions: 125I-endothelin-1, rat brain membranes
Experimental: Endothelin Binding Inhibition Experiment The thus-obtained membrane sample (1 μl) was incubated together with ^125I-endothelin-1 (2×10^−11 M) and various concentrations of the compounds, for 2 hours at 25° C., in 250 μl in total volume of 50 mM Tris-HCl buffer (pH 7.4) containing 0.5% bovine serum albumin. […] The filters were washed with cold buffer A four times, and then measured with a gamma-ray counter (Aroka Autowell Gamma System ARC-251). […]
Please use YES for IC50 under 0.02 µM and NO for everything else, ties included.

These solved cases illustrate the format of a correct answer.
{"columns": ["molecule", "cat"],
 "data": [
  ["COc1ccccc1Oc1c(NS(=O)(=O)c2ccc(C(C)(C)C)cc2)nc(-c2ncccn2)nc1OCC(=O)OCc1ccccc1 [Compound No. 10]", "NO"],
  ["COc1ccccc1Oc1c(NS(=O)(=O)c2ccc(C(C)(C)C)cc2)nc(-c2ncccn2)nc1OCCC(=O)Nc1ccccc1 [Compound No. 18]", "NO"],
  ["COc1ccccc1CNC(=O)CCOc1nc(-c2ncccn2)nc(NS(=O)(=O)c2ccc(C(C)(C)C)cc2)c1Oc1ccccc1OC [Compound No. 34]", "NO"],
  ["COc1ccccc1Oc1c(NS(=O)(=O)c2ccc(C(C)(C)C)cc2)nc(-c2ncccn2)nc1OCC(=O)Oc1cccc(Cl)c1 [Compound No. 12]", "NO"],
  ["CCOC(=O)CCOc1nc(-c2ncccn2)nc(NS(=O)(=O)c2ccc(C(C)(C)C)cc2)c1Oc1ccccc1OC [Compound No. 9]", "NO"]
]}

Given the entry COc1ccccc1Oc1c(NS(=O)(=O)c2ccc(C(C)(C)C)cc2)nc(-c2ncccn2)nc1OCC(=O)NCc1ccccc1 [Compound No. 15] , would its reported IC50 be below 0.02 µM?
YES

====

Target: ETB receptor (Rattus norvegicus, UniProt P21451)
Construct: Rat brain tissue was minced, and a crude receptor membrane sample was prepared; from tissue; host or cells: rat brain crude membranes
Experiment: Endothelin binding inhibition experiment, 125I-endothelin-1 binding assay, ETB receptor membrane sample from rat brain
Details: 125I-endothelin-1, rat brain membranes
Entries whose IC50 is below 0.003 µM take Fulfilled; entries at or above 0.003 µM take Not fulfilled.

{"columns": ["structure", "cat"],
 "data": [
  ["COc1ccccc1Oc1c(NS(=O)(=O)c2ccc(C(C)(C)C)cc2)nc(-c2ncccn2)nc1OCCCC(=O)Nc1ccccc1", "Not fulfilled"],
  ["COc1ccccc1Oc1c(NS(=O)(=O)c2ccc(C(C)(C)C)cc2)nc(-c2ncccn2)nc1OCCC(=O)Nc1ccccn1", "Not fulfilled"],
  ["COc1ccccc1Oc1c(NS(=O)(=O)c2ccc(C(C)(C)C)cc2)nc(-c2ncccn2)nc1OCC(=O)O", "Not fulfilled"]
]}

Is IC50 of COc1ccccc1Oc1c(NS(=O)(=O)c2ccc(C(C)(C)C)cc2)nc(-c2ncccn2)nc1OCCC(=O)NCc1ccccc1 strictly below 0.003 µM?
Fulfilled

And for COc1ccccc1Oc1c(NS(=O)(=O)c2ccc(C(C)(C)C)cc2)nc(-c2ncccn2)nc1OCCC(=O)Nc1ccccc1C(C)C ?
Fulfilled

Now give it for COc1ccccc1NC(=O)CCCOc1nc(-c2ncccn2)nc(NS(=O)(=O)c2ccc(C(C)(C)C)cc2)c1Oc1ccccc1OC too.
Not fulfilled

Do the same for COc1ccccc1NC(=O)CCOc1nc(-c2ncccn2)nc(NS(=O)(=O)c2ccc(C(C)(C)C)cc2)c1Oc1ccccc1OC please
Fulfilled
